- assay: qHTS RealTime-Glo MT Cell Viability Assay in HepG2 cells - 16 hour (AID 1224885); also: nearly all actives have a fitted effect of over 50% in size
- assayConditions: RealTime-Glo luminescence; series mostly up to 76.8 µM
Inconclusive results are not listed. Active and inactive are the calls of the source. Calls follow the shape of the dose curve; as a rule, active = well fitted cell-killing curve with a large enough effect in the repeat runs; inconclusive = weak or mixed curves; inactive = flat fitted curve, though single readings scatter.
Please reply with one of these outcomes: class 1 = active, class 0 = inactive

Recorded results for 2 molecules are shown here.
CNC(=O)c1ccccc1	class 0
O=C(O)c1c(Cl)cccc1Cl	class 0

Per the records of this test, what outcome belongs to CCC(C)(C)C1CCCCC1OC(C)=O (configuration not stated) ?
class 0

Per the records of this test, what outcome belongs to O=C(NOCC1CC1)c1ccc(F)c(F)c1Nc1ccc(I)cc1Cl ?
class 0

Per the records of this test, what outcome belongs to O=C1C=CC(=O)N1c1ccc(Cc2ccc(N3C(=O)C=CC3=O)cc2)cc1 ?
class 1

Per the records of this test, what outcome belongs to COC(=O)C1=C(C)NC(C)=C(C(=O)OCCc2ccc(N3CCN(C(c4ccccc4)c4ccccc4)CC3)cc2)C1c1cccc([N+](=O)[O-])c1 (configuration not stated) ?
class 0

Per the records of this test, what outcome belongs to CN(C)[C@@H]1C(=O)C(C(N)=O)=C(O)[C@@]2(O)C(=O)C3=C(O)c4c(O)cccc4C[C@H]3C[C@@H]12 ?
class 0

Per the records of this test, what outcome belongs to Cc1cc(O)c(C(C)(C)C)cc1C(C)(C)C ?
class 1

====

- assay: Human pregnane X receptor (PXR) small molecule agonists, qHTS cell viability counter screen (AID 1346977); also: nearly all actives have a fitted effect of over 50% in size
- assayConditions: PXR-Luc HepG2 viability, CellTiter-Fluor, 24 h; series mostly up to 92.4 µM
Inconclusive results are not listed. Activity calls are given as the source filed them. The call rests on the fitted dose curve; in most records, active means well fitted cell-killing curve with a large enough effect in the repeat runs; inconclusive means weak or mixed curves, or effect the other way; inactive means flat fitted curve, though single readings scatter.
Please reply with one of these outcomes: 1 = active, 0 = inactive

Recorded results for 8 compounds are shown here.
Nc1cc(C(F)(F)F)ccc1S	0
CNc1ccc(O)cc1	1
O=Cc1cc(O)ccc1Br	0
C=C(C)C(=O)OCC[N+](C)(C)C	0
CC(C)C(C)(C)C(C)(C)C(C)(C)S	0
CN(C)C(=O)C1(N2CCCCC2)CCN(CC[C@@]2(c3ccc(Cl)c(Cl)c3)CN(C(=O)c3ccccc3)CCO2)CC1	1
C=CC(=O)OCC(CO)(COCC(COC(=O)C=C)(COC(=O)C=C)COC(=O)C=C)COC(=O)C=C	1
OCCCCCCCCCCCCBr	0

Per the records of this test, what outcome belongs to N#CC1(c2ccc(F)cc2)CCC(=O)CC1 ?
0

Per the records of this test, what outcome belongs to [Cl][Au]([Cl])[Cl] ?
1

Per the records of this test, what outcome belongs to Cc1cc(C2CCCCC2)n(O)c(=O)c1 ?
1

Per the records of this test, what outcome belongs to CCCN(CCC)C(=O)C(CCC(=O)OCCCN1CCN(CCOC(=O)Cc2c(C)n(C(=O)c3ccc(Cl)cc3)c3ccc(OC)cc23)CC1)NC(=O)c1ccccc1 (stereo not drawn) ?
1

Per the records of this test, what outcome belongs to CCCCCCCCCCCCc1ccc(O)cc1 ?
1

====

- assay: qHTS RealTime-Glo MT Cell Viability Assay in HEK293 cells - 16 hour (AID 1224872); also: nearly all actives have a fitted effect of over 50% in size
- assayConditions: RealTime-Glo luminescence; series mostly up to 76.8 µM
Results filed as inconclusive are left out. Activity calls are given as the source filed them. Calls follow the shape of the dose curve; as a rule, active = well fitted cell-killing curve with a large enough effect in the repeat runs; inconclusive = weak or mixed curves, or effect the other way; inactive = flat fitted curve, though single readings scatter.
Please reply with one of these outcomes: active, inactive

Recorded results for 5 compounds are shown here.
Oc1cccc2cc3cccc(O)c3c(O)c12	inactive
CCOC(=O)/C=C(C)/C=C/C=C(C)/C=C/c1c(C)cc(OC)c(C)c1C	inactive
NC(=O)CC[C@@H]1NC(=O)[C@H](Cc2ccccc2)NC(=O)[C@H](Cc2ccc(O)cc2)NC(=O)CCSSC[C@@H](C(=O)N2CCC[C@H]2C(=O)N[C@@H](CCCN=C(N)N)C(=O)NCC(N)=O)NC(=O)[C@H](CC(N)=O)NC1=O	inactive
Fc1ccc([C@@H]2CCNC[C@H]2COc2ccc3c(c2)OCO3)cc1	inactive
CNC(=O)c1ccccc1	inactive

Per the records of this test, what outcome belongs to CCCCCCCCCCn1cc[n+](CCCCCCCCCC)c1C ?
active

Per the records of this test, what outcome belongs to Cc1cc(N)c(S(=O)(=O)O)cc1Cl ?
inactive

Per the records of this test, what outcome belongs to Cc1c(C)c2c(c(C)c1OC(=O)CCC(=O)O)CC[C@@](C)(CCC[C@H](C)CCC[C@H](C)CCCC(C)C)O2 ?
inactive

Per the records of this test, what outcome belongs to Cc1cc(O)c(C(C)(C)C)cc1Sc1cc(C(C)(C)C)c(O)cc1C ?
active

Per the records of this test, what outcome belongs to CCN(CC)CCCC(C)Nc1c2ccc(Cl)cc2nc2ccc(OC)cc12 (stereo not given) ?
active

Each recorded value in this set is attributed to PubChem BioAssay (Tox21).
